Values compiled from patent US9580416B2.

For UniProtKB P52333, measured IC50 is reported for the entries below.
Sequence (P52333 whole entry): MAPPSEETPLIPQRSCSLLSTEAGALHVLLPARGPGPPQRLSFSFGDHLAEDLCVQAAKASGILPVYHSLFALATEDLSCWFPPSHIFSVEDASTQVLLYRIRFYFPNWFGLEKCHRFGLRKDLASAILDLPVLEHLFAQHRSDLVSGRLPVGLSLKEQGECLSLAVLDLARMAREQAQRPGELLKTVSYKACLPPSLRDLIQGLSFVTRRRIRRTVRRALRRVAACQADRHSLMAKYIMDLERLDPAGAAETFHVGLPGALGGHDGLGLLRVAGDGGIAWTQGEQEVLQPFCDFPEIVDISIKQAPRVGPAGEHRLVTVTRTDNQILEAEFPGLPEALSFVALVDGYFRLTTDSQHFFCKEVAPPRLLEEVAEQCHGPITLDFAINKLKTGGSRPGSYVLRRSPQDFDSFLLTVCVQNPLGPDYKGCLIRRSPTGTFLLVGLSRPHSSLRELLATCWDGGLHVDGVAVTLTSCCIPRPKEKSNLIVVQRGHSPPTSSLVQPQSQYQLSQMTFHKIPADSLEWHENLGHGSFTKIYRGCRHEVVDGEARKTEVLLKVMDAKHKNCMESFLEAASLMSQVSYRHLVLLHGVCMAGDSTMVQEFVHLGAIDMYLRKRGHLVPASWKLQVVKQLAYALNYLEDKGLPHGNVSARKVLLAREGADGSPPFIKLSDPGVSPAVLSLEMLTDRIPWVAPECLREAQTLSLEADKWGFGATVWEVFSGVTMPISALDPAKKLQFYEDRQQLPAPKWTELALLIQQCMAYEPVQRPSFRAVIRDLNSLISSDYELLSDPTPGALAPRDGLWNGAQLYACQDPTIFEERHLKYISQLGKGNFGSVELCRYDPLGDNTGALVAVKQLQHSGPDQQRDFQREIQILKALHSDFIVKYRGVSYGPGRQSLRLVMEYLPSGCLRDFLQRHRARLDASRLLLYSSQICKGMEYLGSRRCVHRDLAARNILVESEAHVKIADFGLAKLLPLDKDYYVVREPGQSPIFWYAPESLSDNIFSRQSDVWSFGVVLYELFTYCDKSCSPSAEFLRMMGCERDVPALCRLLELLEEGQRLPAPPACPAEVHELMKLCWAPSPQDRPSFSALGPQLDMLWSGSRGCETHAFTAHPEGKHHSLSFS

query: // map Cc1ccnc(NC(=O)c2ccc(Oc3ccnc4[nH]nc(N[C@@H]5CCCN(C(=O)C6CC6)C5)c34)cc2)c1 to recorded IC50 (system: UniProtKB P52333)
result: > 10 µM

query: Now consider C=CC(=O)N1CC[C@@H](Nc2n[nH]c3nccc(Oc4cccc(C(=O)Nc5ccc(C(C)C)c(C)c5)c4)c23)C1 and answer again.
result: < 0.1 µM

query: Please answer likewise for C=CC(=O)N1CC[C@H](Nc2n[nH]c3nccc(Oc4cccc(C(=O)Nc5ccc(C(C)C)c(C)c5)c4)c23)C1
result: 0.1 to 1 µM

query: // next record CN(C)CCCC(=O)N1CCC[C@@H](Nc2n[nH]c3nccc(Oc4ccc(C(=O)Nc5nc6ccccc6s5)cc4)c23)C1
result: < 0.1 µM

query: Query Cc1ccnc(NC(=O)c2ccc(Oc3ccnc4[nH]nc(N[C@@H]5CCCN(C#N)C5)c34)cc2)c1 next
result: > 10 µM

query: C=CC(=O)N1CCCC(Nc2n[nH]c3nccc(Oc4ccc(-c5ccc(C(F)(F)F)cn5)cc4)c23)C1 (stereo in doubt) , same question.
result: 0.1 to 1 µM

query: Note, next up: Cc1ccnc(NC(=O)c2ccc(Oc3ccnc4[nH]nc(N[C@@H]5CCCN(C(=O)Oc6ccccc6)C5)c34)cc2)c1
result: > 10 µM

query: Also Cc1cccc(NC(=O)c2ccc(Oc3ccnc4[nH]nc(N[C@@H]5CCCN(C(=O)C6(C)COC6)C5)c34)cc2)n1 , if possible.
result: > 10 µM

query: Param item: CCOP(=O)(CC(=O)N1CCC[C@@H](Nc2n[nH]c3nccc(Oc4ccc(C(=O)Nc5cc(C)ccn5)cc4)c23)C1)OCC
result: > 10 µM

query: Then what about the molecule O=C(Nc1cc(C(F)(F)F)ccn1)c1ccc(Oc2ccnc3[nH]nc(C4CCCN(C(=O)C5CC5)C4)c23)cc1 (stereo not drawn) ?
result: > 10 µM

query: Next: Cc1ccnc(NC(=O)c2ccc(Oc3ccnc4[nH]nc(NC5CCN(C(=O)C6(C)CCN(C)CC6)CC5)c34)cc2)c1
result: > 10 µM

query: What about Cc1ccnc(NC(=O)c2ccc(Oc3ccnc4[nH]nc(N[C@@H]5CCCN(C(=O)C(C)(C)C#N)C5)c34)cc2)c1 ?
result: > 10 µM

query: Moving on to the next molecule: CCNC(=O)N1CC[C@@H](Nc2n[nH]c3nccc(Oc4ccc(C(=O)Nc5cc(C(F)(F)F)ccn5)cc4)c23)C1
result: > 10 µM

query: // same read-out, input: Cc1cnc(NC(=O)c2ccc(Oc3ccnc4[nH]nc(N[C@@H]5CCN(C(=O)C6CCN(C)CC6)C5)c34)cc2)s1
result: > 10 µM

query: Moving on to Cc1cc(NC(=O)c2cccc(Oc3ccnc4[nH]nc(N[C@@H]5CCCN(C(=O)C#CCO)C5)c34)c2)ccc1C(C)C
result: < 0.1 µM

query: Record: Cc1ccnc(NC(=O)c2ccc(Oc3ccnc4[nH]nc(N[C@@H]5CCCN(C(=O)C#CCO)C5)c34)cc2)c1
result: 0.1 to 1 µM

query: Queued: CC#CC(=O)N1CCC[C@@H](Nc2n[nH]c3nccc(Oc4ccc(C(=O)Nc5ncc(CC)s5)cc4)c23)C1
result: 1 to 10 µM

query: And what about the molecule Cc1ccnc(NC(=O)c2ccc(Oc3ccnc4[nH]nc(N[C@@H]5CCCN(C(=O)C(=O)N(C)C)C5)c34)cc2)c1 ?
result: > 10 µM

###

target: Btk (Homo sapiens, UniProt Q06187); experiment: Btk kinase activity, TR-FRET assay; format: biochemical; conditions: read-out: Btk (IC50)
Sequence (Q06187 whole entry): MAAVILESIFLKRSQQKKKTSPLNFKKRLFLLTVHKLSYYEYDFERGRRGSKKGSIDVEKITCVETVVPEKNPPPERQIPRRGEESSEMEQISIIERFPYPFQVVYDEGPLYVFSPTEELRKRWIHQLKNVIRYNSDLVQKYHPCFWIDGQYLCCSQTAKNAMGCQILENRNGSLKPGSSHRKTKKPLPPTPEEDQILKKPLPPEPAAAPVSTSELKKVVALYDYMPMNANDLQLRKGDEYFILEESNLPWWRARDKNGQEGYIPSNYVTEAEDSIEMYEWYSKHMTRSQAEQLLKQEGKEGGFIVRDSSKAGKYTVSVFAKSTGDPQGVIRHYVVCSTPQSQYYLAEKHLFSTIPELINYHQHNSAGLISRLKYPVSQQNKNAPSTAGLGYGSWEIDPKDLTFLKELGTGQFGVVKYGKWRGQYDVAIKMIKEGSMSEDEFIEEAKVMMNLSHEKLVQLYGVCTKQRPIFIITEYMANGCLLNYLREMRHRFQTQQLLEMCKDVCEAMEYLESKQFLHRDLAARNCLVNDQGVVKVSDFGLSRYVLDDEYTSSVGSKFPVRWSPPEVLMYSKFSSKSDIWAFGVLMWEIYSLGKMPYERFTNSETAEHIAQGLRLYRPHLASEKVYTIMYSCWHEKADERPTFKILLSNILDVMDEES
Please go through the items and note down their IC50.

query: Provide value of IC50 for this record tested with Btk (Homo sapiens, UniProt Q06187): Cc1cc(NC(=O)c2cccc(Nc3ccnc4[nH]nc(O[C@@H]5CCCNC5)c34)c2)ccc1C(C)C
result: 100 to 1000 nM

query: And CC#CC(=O)N1CCC[C@@H](Nc2n[nH]c3nccc(Oc4ccc(C(=O)Nc5ncc(C#N)s5)cc4)c23)C1 ?
result: < 100 nM

query: Moving on to Cc1cnc(-c2cccc(Oc3ccnc4[nH]nc(N[C@@H]5CCCN(C(=O)/C=C/CN(C)C6CC6)C5)c34)c2)s1
result: 1000 to 10000 nM

query: Also check Cc1cnc(NC(=O)c2ccc(Oc3ccnc4[nH]nc(N[C@@H]5CCN(C(=O)C6CCN(C)CC6)C5)c34)cc2)s1
result: < 100 nM

query: Queued: COCCNc1n[nH]c2nccc(Oc3ccc(C(=O)Nc4cc(C(F)(F)F)ccn4)cc3)c12
result: 100 to 1000 nM

query: Follow-up entry: Cc1c[nH]c(NC(=O)c2ccc(Oc3ccnc4[nH]nc(N[C@@H]5CCCN(C(=O)/C=C/CN(C)C6CC6)C5)c34)cc2)n1
result: 1000 to 10000 nM

query: Try this compound next: CCC(=O)N1CCC[C@@H](Nc2n[nH]c3nccc(Oc4ccc(-c5nc6ccccc6s5)cc4)c23)C1
result: 100 to 1000 nM

query: Query Cc1csc(NC(=O)c2ccc(Oc3ccnc4[nH]nc(N[C@@H]5CCCN(C(=O)/C=C/CN(C)C6CC6)C5)c34)cc2)n1 next
result: 100 to 1000 nM

query: Please give the result for CCNC(=O)N1CCC[C@@H](Nc2n[nH]c3nccc(Oc4ccc(-c5nc6ccccc6s5)cc4)c23)C1 too.
result: 100 to 1000 nM

query: Next up: CC#CC(=O)N1CCC[C@@H](Nc2n[nH]c3nccc(Oc4ccc(-c5nc6ncccc6o5)cc4)c23)C1
result: 100 to 1000 nM

query: Cc1ccnc(NC(=O)c2ccc(Oc3ccnc4[nH]nc(N[C@@H]5CCCN(C(=O)C6CCOCC6)C5)c34)cc2)c1 ?
result: < 100 nM

query: What do you have for CN(C/C=C/C(=O)N1CC[C@@H](Nc2n[nH]c3nccc(Oc4cccc(Oc5ccccc5)c4)c23)C1)C1CC1 ?
result: < 100 nM

query: And for CN(C/C=C/C(=O)N1CC[C@@H](Nc2n[nH]c3nccc(Nc4ccc(Oc5ccccc5)cc4)c23)C1)C1CC1 ?
result: < 100 nM

query: Now try Cc1cccc2nc(-c3ccc(Oc4ccnc5[nH]nc(N[C@@H]6CCCN(C(=O)C7CC7)C6)c45)cc3)oc12 .
result: 1000 to 10000 nM

query: Here is the next compound: N#C/C(=C\C1CCC1)C(=O)N1CC[C@@H](Nc2n[nH]c3nccc(Oc4ccc(Oc5ccccc5)cc4)c23)C1
result: < 100 nM

query: # iterate: CN(C/C=C/C(=O)N1CCC[C@@H](Nc2n[nH]c3nccc(Oc4ccc(NC(=O)Nc5cc(C(F)(F)F)ccn5)cc4)c23)C1)C1CC1
result: 100 to 1000 nM

query: Now the compound C=CC(=O)N1CC[C@@H](Nc2n[nH]c3nccc(Oc4ccc(Oc5ccccc5)cc4)c23)C1
result: < 100 nM

query: Moving on to the next compound: Cc1ccnc(NC(=O)c2ccc(Oc3ccnc4[nH]nc(N[C@@H]5CCCN(C(=O)c6ncc[nH]6)C5)c34)cc2)c1
result: < 100 nM

query: And then Cc1cc(Oc2ccccc2)ccc1Oc1ccnc2[nH]nc(N[C@@H]3CCCN(C(=O)/C=C/CN(C)C4CC4)C3)c12 , what is it?
result: < 100 nM

###

Give measured pIC50 for each item. Keep answers brief.
Target: Btk (Homo sapiens)
Experiment: Btk kinase activity, TR-FRET assay
Format: biochemical
Conditions: read-out: Btk (IC50)
Procedure: Btk kinase activity is determined using a time-resolved fluorescence resonance energy transfer (TR-FRET) methodology. Measurements are performed in a reaction volume of 50 μL using 96-well assay plates. […] The TR-FRET signal is measured on a multimode plate reader with an excitation wavelength (λEx) of 330 nm and detection wavelengths (λEm) of 615 and 665 nm. Activity is determined by the ratio of the fluorescence at 665 nm to that at 615 nm. […]
pIC50: −log10 of the molar value.

query: # get_value(readout='pIC50', item= N#Cc1ccnc(NC(=O)c2ccc(Oc3ccnc4[nH]nc(N[C@@H]5CCCN(C(=O)C6CC6)C5)c34)cc2)c1 )
result: > 7.00

query: Here is the next molecule: C=CC(=O)N1CCC[C@@H](Nc2n[nH]c3nccc(Oc4ccc(C(=O)N5CCCC(C(F)(F)F)C5)cc4)c23)C1 (stereo partly shown)
result: > 7.00

query: And the next one, C=CC(=O)N1CCC[C@@H](Nc2n[nH]c3nccc(Oc4cccc(C(=O)Nc5cc(C(F)(F)F)ccn5)c4)c23)C1 ?
result: > 7.00

query: One more molecule: CN(C)C/C=C/C(=O)N1CCCC(c2n[nH]c3nccc(Oc4ccc(Oc5ccccc5)cc4)c23)C1 (stereo not shown)
result: > 7.00

query: For CC1(C(=O)N2CCC[C@@H](Nc3n[nH]c4nccc(Oc5ccc(C(=O)Nc6cc(C(F)(F)F)ccn6)cc5)c34)C2)COC1 then?
result: > 7.00

query: Now try CN(C)C/C=C/C(=O)N1CC[C@@H](Nc2n[nH]c3nccc(O[C@H]4CCN(c5ccccc5)C4)c23)C1 .
result: 6.00 to 7.00

query: Here is the next molecule: CN(C/C=C/C(=O)N1CCC[C@@H](Nc2n[nH]c3nccc(Oc4ccc(C(=O)Nc5nc6ccccc6s5)cc4)c23)C1)C1CC1
result: > 7.00

query: Similarly, CC#CC(=O)N1CCC[C@@H](Nc2n[nH]c3nccc(Oc4ccc(C(=O)Nc5nc6ccccc6s5)cc4)c23)C1 ?
result: > 7.00

query: Next: C=CC(=O)N1CCC[C@@H](Nc2n[nH]c3nccc(Oc4ccc(C(=O)Nc5ncc(C(F)(F)F)s5)cc4)c23)C1
result: > 7.00

query: Query CN(C/C=C/C(=O)N1CC[C@@H](Nc2n[nH]c3nccc(Oc4ccc(OCc5cnn[nH]5)cc4)c23)C1)C1CC1 next
result: > 7.00

query: Now consider C=CC(=O)N1CCC[C@@H](Nc2n[nH]c3nccc(Oc4cccc(-c5ncc(C)s5)c4)c23)C1 and answer again.
result: 6.00 to 7.00

query: Same again, this time with CCC(=O)N1CCC[C@@H](N(C(=O)CC)c2n[nH]c3ncnc(Oc4ccc(Oc5ccccc5)cc4)c23)C1
result: 6.00 to 7.00

query: Can you handle CN(C)C/C=C/C(=O)N1CC[C@@H](Nc2n[nH]c3nccc(Oc4cccc(Oc5ccccc5)c4)c23)C1 next?
result: > 7.00

query: Try this molecule next: N#CCC(=O)N1CC[C@@H](Nc2n[nH]c3nccc(Oc4ccc(Oc5ccccc5)cc4)c23)C1
result: > 7.00

query: Continue with CCC(=O)N1CC[C@@H](Nc2n[nH]c3nccc(Oc4ccc(C(=O)Nc5nnc(C)[nH]5)cc4)c23)C1
result: < 5.00

query: Consider next the molecule CCC(=O)N1CC[C@@H](Nc2n[nH]c3nccc(Nc4ccc(C(=O)Nc5cc(C(F)(F)F)ccn5)cc4)c23)C1 in the same way.
result: > 7.00

query: Please do the same for CCC(=O)N1CCC[C@@H](Nc2n[nH]c3nccc(Oc4ccc(C(=O)Nc5cc(C(F)(F)F)ccn5)cc4)c23)C1 as well.
result: > 7.00

query: Try N#Cc1ccnc(NC(=O)c2ccc(Oc3ccnc4[nH]nc(NC5CCOCC5)c34)cc2)c1 next.
result: > 7.00

query: Also C=CC(=O)N1CC[C@@H](N(C)c2n[nH]c3nccc(Oc4ccc(Cl)cc4)c23)C1 , if possible.
result: > 7.00

query: Again, but for Cc1nc(NC(=O)c2ccc(Oc3ccnc4[nH]nc(N[C@@H]5CCCN(C(=O)/C=C/CN(C)C6CC6)C5)c34)cc2)sc1C
result: > 7.00

query: Next: CNC(=O)C(=O)N1CCC[C@@H](Nc2n[nH]c3nccc(Oc4ccc(C(=O)Nc5cc(C)ccn5)cc4)c23)C1
result: > 7.00

query: Subsequent entry: O=C(NC1CCCCC1)c1cccc(Oc2ccnc3[nH]nc(N[C@@H]4CCCNC4)c23)c1
result: 6.00 to 7.00
